- EXPERIMENT DESCRIPTION: self-splicing fitness, log relative to wild type (ln ratio); higher = more splicing; Tetrahymena group I intron in knt gene, E. coli kanamycin selection, DiMSum; sequences stand for … in CUCUCU…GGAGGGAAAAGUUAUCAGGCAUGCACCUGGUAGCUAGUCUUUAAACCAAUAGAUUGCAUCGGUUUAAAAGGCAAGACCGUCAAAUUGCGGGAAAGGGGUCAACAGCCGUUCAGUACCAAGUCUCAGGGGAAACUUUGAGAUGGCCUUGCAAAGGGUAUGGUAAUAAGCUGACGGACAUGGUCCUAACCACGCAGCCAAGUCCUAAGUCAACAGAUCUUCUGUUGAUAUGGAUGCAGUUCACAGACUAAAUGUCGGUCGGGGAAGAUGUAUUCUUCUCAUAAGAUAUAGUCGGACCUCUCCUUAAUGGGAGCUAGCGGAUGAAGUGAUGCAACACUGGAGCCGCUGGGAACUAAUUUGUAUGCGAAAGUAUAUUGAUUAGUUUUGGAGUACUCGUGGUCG;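 also: selection with 25 µg/mL kanamycin versus none on LB agar overnight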
- ASSAY CONTEXT: 30 °C
Attribute: self-splicing fitness (ln)

Some sequences with recorded self-splicing fitness (ln):
INSERT INTO assay_data (monomer_sequence, assay_endpoint, data_value) VALUES
  ('GAAGAGCAAUAUUACGCAUA', 'self-splicing fitness (ln)', -3.1),
  ('GAGGAGCAAUAUUACGGCGU', 'self-splicing fitness (ln)', -1.72),
  ('CCGCAGCAAUAUUACGUCCU', 'self-splicing fitness (ln)', -3.12);

Could you now look at the following sequence, please?
Indicate its recorded self-splicing fitness (ln); the sequence in question is UCUCAGCAAUAUUACGAGAA
-2.45

====

# self-splicing fitness (ln) per entry
- EXPERIMENT DESCRIPTION: self-splicing fitness, log relative to wild type (ln ratio); higher = more splicing; Tetrahymena group I intron in knt gene, E. coli kanamycin selection, DiMSum; sequences stand for … in CUCUCU…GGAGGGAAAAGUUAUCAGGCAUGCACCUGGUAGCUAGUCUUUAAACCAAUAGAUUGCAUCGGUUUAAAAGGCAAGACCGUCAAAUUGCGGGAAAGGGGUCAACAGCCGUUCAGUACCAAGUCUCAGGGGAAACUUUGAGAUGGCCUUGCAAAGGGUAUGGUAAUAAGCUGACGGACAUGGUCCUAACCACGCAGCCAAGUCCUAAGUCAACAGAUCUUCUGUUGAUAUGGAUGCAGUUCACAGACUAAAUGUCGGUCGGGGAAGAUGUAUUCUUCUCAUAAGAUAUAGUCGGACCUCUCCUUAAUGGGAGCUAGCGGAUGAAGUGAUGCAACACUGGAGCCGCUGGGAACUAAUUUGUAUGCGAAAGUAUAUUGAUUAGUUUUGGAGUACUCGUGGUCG
- ASSAY CONTEXT: 37 °C

The examples below pair each entry with its known result.
INSERT INTO results (monomer_sequence, data_value) VALUES
  ('ACUCAGCAAUAUUACGAAGG', -1.19),
  ('CAUCAGCAAUAUUACGCCAC', -2.22),
  ('AGUAAGCAAUAUUACGCCAA', -2.6),
  ('CGGAAGCAAUAUUACGCGAU', -2.05),
  ('AGAUAGCAAUAUUACGACAC', -0.486);

Find the measured self-splicing fitness (ln) of GGCAAGCAAUAUUACGUGUG and report it.
-0.126

Read off the recorded self-splicing fitness (ln) for GUUAAGCAAUAUUACGGGAA
-1.86

In one line, give reported self-splicing fitness (ln) of the entry GUAAAGCAAUAUUACGUAUU .
-1.69

Give self-splicing fitness (ln) for CUAAAGCAAUAUUACGCGGA
-3.62

Give the reported self-splicing fitness (ln) for this sequence. GAACAGCAAUAUUACGUGGA
-1.95

Consider the sequence GCCUAGCAAUAUUACGCAGU and give its recorded self-splicing fitness (ln).
-0.206
